Data provenance: ChEMBL document CHEMBL6182926

Below is a list of entries, each paired with its recorded MIC80 value.
test system: Cryptococcus neoformans; assay: Antifungal activity against Cryptococcus neoformans CGMCC 2.3161 assessed as inhibition of visible growth; type: functional
Numeric answer only, unit µg/mL assumed.

Cc1ccc(-c2ccc(CN(C)CC(O)(Cn3cncn3)c3ccc(F)cc3F)nc2)cc1 (centres undefined)
0.8

stdin: Sample CN(Cc1ccc(-c2ccc(C(F)(F)F)cc2)cn1)CC(O)(Cn1cncn1)c1ccc(F)cc1F (centres undefined) — what was its MIC80?
stdout: 0.025

stdin: Sample CN(Cc1ccc(-c2ccc(OC(F)(F)F)cc2)nc1)CC(O)(Cn1cncn1)c1ccc(F)cc1F (centres undefined) — what was its MIC80?
stdout: 0.05

stdin: Sample [2H]C([2H])([2H])N(Cc1ccc(-c2ccc(Cl)c(F)c2)nc1)[C@H](C)[C@](O)(Cn1cncn1)c1ccc(F)cc1F — what was its MIC80?
stdout: 0.012

###

biological target: Cytochrome P450 3A4 (Homo sapiens, UniProt P08684); experiment: Inhibition of CYP3A4 in human liver microsomes using testosterone as substrate measured after 10 mins by LC/MS/MS analysis; format: ADME, Microsome
Sequence (P08684 whole entry): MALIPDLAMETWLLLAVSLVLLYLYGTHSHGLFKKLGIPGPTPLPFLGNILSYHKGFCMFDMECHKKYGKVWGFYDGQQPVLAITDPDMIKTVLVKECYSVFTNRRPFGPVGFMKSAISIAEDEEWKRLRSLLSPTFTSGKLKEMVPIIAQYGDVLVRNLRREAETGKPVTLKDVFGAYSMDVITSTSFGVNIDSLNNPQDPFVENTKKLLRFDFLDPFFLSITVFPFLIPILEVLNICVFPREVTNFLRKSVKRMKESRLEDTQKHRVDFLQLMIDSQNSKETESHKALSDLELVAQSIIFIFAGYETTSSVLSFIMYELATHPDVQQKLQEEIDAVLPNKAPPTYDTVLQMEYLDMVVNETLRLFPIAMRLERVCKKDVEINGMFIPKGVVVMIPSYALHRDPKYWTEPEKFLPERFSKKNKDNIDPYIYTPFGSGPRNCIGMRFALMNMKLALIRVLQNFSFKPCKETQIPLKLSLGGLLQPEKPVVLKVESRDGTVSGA
attribute_measured: pIC50
FYI, pIC50 means -log10 of a concentration in mol per litre.

stdin: Sample [2H]C([2H])([2H])N(Cc1ccc(-c2ccc(OC(F)(F)F)cc2)cc1)[C@H](C)[C@](O)(Cn1cncn1)c1ccc(F)cc1F — what was its pIC50?
stdout: 5.29

###

tested on: Cryptococcus neoformans; assay: Antifungal activity against Cryptococcus neoformans CGMCC 2.3161 assessed as inhibition of visible growth; format: functional
Below is a list of entries, each paired with its recorded log10 MIC80 value.
All values: log10 MIC80 [µg/mL].

# annotated cases, reported log10 MIC80 shown
CN(Cc1ccc(-c2cccc(F)c2)cn1)CC(O)(Cn1cncn1)c1ccc(F)cc1F (configuration not stated)
-1.30
COc1ccc(-c2ccc(CN(C)CC(O)(Cn3cncn3)c3ccc(F)cc3F)nc2)cc1 (configuration not stated)
-0.40
CCc1ccc(-c2ccc(CN(C)CC(O)(Cn3cncn3)c3ccc(F)cc3F)nc2)cc1 (configuration not stated)
-1.60
[2H]C([2H])([2H])N(Cc1ccc(-c2ccc(Cl)cc2)cc1)CC(O)(Cn1cncn1)c1ccc(F)cc1F (configuration not stated)
-1.92
[2H]C([2H])([2H])N(Cc1ccc(-c2ccc(Cl)c(F)c2)cc1F)[C@H](C)[C@](O)(Cn1cncn1)c1ccc(F)cc1F
-1.60

Turning to the following compound.
stdin: Sample CC(C)c1ccc(-c2ccc(CN(C)CC(O)(Cn3cncn3)c3ccc(F)cc3F)nc2)cc1 (configuration not stated) — what was its log10 MIC80?
stdout: -1.60

###

assay: Selectivity ratio, ratio of IC50 for cytotoxicity against human SH-SY5Y cells to MIC80 for antifungal activity against Candida tropicalis CGMCC 2.3739; type: toxicity, cell-based
attribute_measured: selectivity ratio

stdin: Sample [2H]C([2H])([2H])N(Cc1ccc(-c2ccc(OC(F)(F)F)cc2)cc1)[C@H](C)[C@](O)(Cn1cncn1)c1ccc(F)cc1F — what was its selectivity ratio?
stdout: > 100

###

test system: Nakaseomyces glabratus; assay: Antifungal activity against Clinical isolate Candida glabrata assessed as inhibition of visible growth; assay type: functional
attribute_measured: log10 MIC80 (log10 of the value in µg/mL)
All values: log10 MIC80 [µg/mL].

CN(Cc1ccc(-c2ccc(-c3ccccc3)cc2)cn1)CC(O)(Cn1cncn1)c1ccc(F)cc1F (stereo not drawn)
-1.00

stdin: Sample [2H]C([2H])([2H])N(Cc1ccc(-c2ccc(Cl)cc2)cc1)CC(O)(Cn1cncn1)c1ccc(F)cc1F (stereo not drawn) — what was its log10 MIC80?
stdout: -1.92

stdin: Sample CN(Cc1ccc(-c2ccc(Cl)cc2)o1)CC(O)(Cn1cncn1)c1ccc(F)cc1F (stereo not drawn) — what was its log10 MIC80?
stdout: -0.40

stdin: Sample CN(Cc1ccc(-c2ccc(Cl)cc2)cn1)CC(O)(Cn1cncn1)c1ccc(F)cc1F (stereo not drawn) — what was its log10 MIC80?
stdout: -1.30

stdin: Sample [2H]C([2H])([2H])N(Cc1ccc(-c2ccc(OC(F)(F)F)cc2)nc1)[C@H](C)[C@](O)(Cn1cncn1)c1ccc(F)cc1F — what was its log10 MIC80?
stdout: -1.92

stdin: Sample CN(Cc1ccc(-c2ccc(OC(F)(F)F)cc2)s1)CC(O)(Cn1cncn1)c1ccc(F)cc1F (stereo not drawn) — what was its log10 MIC80?
stdout: -1.00

stdin: Sample OC(CNCc1ccc(-c2ccc(Cl)cc2)cc1)(Cn1cncn1)c1ccc(F)cc1F (stereo not drawn) — what was its log10 MIC80?
stdout: -1.30

stdin: Sample [2H]C([2H])([2H])N(Cc1ccc(-c2ccc(C(F)(F)F)cc2)cc1F)[C@H](C)[C@](O)(Cn1cncn1)c1ccc(F)cc1F — what was its log10 MIC80?
stdout: -1.60
